Measured % Settlement by item
Tested on: cyprid larvae of the barnacle Balanus amphitrite
Assay: Settlement assay for cyprid-stage barnacle larvae (% settlement)
Conditions: Table 1; 3×10^-6 M in seawater, dishes; Control 35
Remember to quote the unit after the number.

Below, 4 compounds whose answers are already recorded.
CCCCCCC1CCC(=O)O1 (centres unmarked) [γ-decalactone] ... 3%
CCCCCCC1CCCC(=O)O1 (centres unmarked) [δ-undecalactone, reference compound] ... 40%
CCCCC1CCC(=O)O1 (centres unmarked) [γ-octanolactone] ... 39%
O=C1CCCCCO1 [ε-caprolactone, reference compound] ... 41%

Entry CC1CCC(=O)O1 (centres unmarked) [γ-valerolactone] — recorded % Settlement = 26%
